experiment: clinical; details: human, in vivo, po
outcome_measure: half-life

For reference, reported half-life for Clc1ccc(Nc2nnc(Cc3ccncc3)c3ccccc23)cc1 stands at 3 to 6 h

====

test: clinical; details: human, in vivo, po
outcome_measure: Tmax

For reference, reported Tmax for Clc1ccc(Nc2nnc(Cc3ccncc3)c3ccccc23)cc1 stands at 1 to 2.5 h
